experimental_system: PD-1/PD-L1 (Homo sapiens, UniProt Q9NZQ7)
Construct: made in house; host or cells: HEK293T
Sequence (Q9NZQ7 with tags, fused parts or gaps): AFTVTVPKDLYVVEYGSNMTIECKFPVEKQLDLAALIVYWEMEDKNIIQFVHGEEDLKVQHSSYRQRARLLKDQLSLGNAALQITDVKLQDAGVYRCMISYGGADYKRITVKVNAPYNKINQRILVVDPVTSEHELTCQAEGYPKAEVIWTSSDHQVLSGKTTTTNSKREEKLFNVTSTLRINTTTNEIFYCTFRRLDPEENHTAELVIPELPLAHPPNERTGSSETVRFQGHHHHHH
test_description: PD-1/PD-L1 Homogenous Time-Resolved Fluorescence (HTRF) binding assay
condition: PD-L1-His 10 nM, PD-1-Ig 20 nM; value given as range class; read-out: Range or IC50
property_measured: IC50

Solved entries:
# molecule, experimental_system, IC50
measured = [
    ("C[C@](CO)(NCc1cc(Cl)c(OCc2cccc(-c3cccc(OCCCN4C[C@@H](O)[C@H](O)C4)c3Cl)c2Cl)cc1OCc1cncc(C#N)c1)C(=O)O [Example 2078]", "PD-1/PD-L1 (Homo sapiens, UniProt Q9NZQ7)", "0.21 to 10 nM"),
    ("Cc1c(COc2cc(OCc3cncc(C#N)c3)c(CO)cc2Cl)cccc1-c1cccc(OCCCNC(CO)CO)c1Cl [Example 2039]", "PD-1/PD-L1 (Homo sapiens, UniProt Q9NZQ7)", "0.21 to 10 nM"),
]

Query (molecule): Cc1c(COc2cc(OCc3cncc(C#N)c3)c(CN3CCCC[C@H]3C(=O)O)cc2Cl)cccc1-c1cccc(OCCCN2[C@@H]3CC[C@H]2CC(O)C3)c1C (stereo partly drawn) [Example 3048] ; field requested: IC50
0.21 to 10 nM
